Source of measurements: the supplement of paper PMC12636428

System: Saccharomyces cerevisiae
Assay: transcriptional activation domain activity (GFP:mCherry ratio, weighted mean of sorted bins, harmonized to initial dataset scale) (arbitrary fluorescence ratio units); higher = stronger transcriptional activation
Details: beta-estradiol 1 µM; induction time 4 h
endpoint.label: transcriptional activation domain activity

residue.sequence	reported.result
MEWVRTARGRVPPGRRPVEGGYESSGARLYHALAVVDGVRVPGKTGEHLGGCN	32000

Request: Lab request: please report transcriptional activation domain activity under test system Saccharomyces cerevisiae for "SGPRASSGAKAQSLSQRGAKRKAASTARTEGASSSKSSRARGGKARASRVAKT"
Result: 32900

Request: // same read-out, input: "SGWQRHIILHESLLNRYEHVIIVFVKSHLPSAGLLLKQFCVSGRILARMWRNG"
Result: 47800

Request: // same read-out, input: "LRLLVAWLIPQLEMWLHTNMGVRFLLIEYTPEHLGTVLALREFIGDHMFKVAG"
Result: 49000

Request: // same read-out, input: "MALLSQVARLLGSFLCVAISCFGRLALLFLWLILAYFTFWSFFSGNLPICFCL"
Result: 59300

Request: // same read-out, input: "RLWLVRGPFTELFRRFLFSNIRFTSKVTIISYIGTYYAIGAAWIMTTANYLAI"
Result: 47600

Request: // same read-out, input: "ESLREIGLTSVRDIITRHASEQAILTVVDFPLRVLAMIAQIRCGLWVRNGFVI"
Result: 77800

Request: // same read-out, input: "MSRKIYCTPAFSTIHLLYLHNFFLIPIYYLQTSLRNILSKLSFCLILSILLLP"
Result: 52900

Request: // same read-out, input: "MSSLFFSFQAVQFWFLGFLGLSWFRLVSTSYNIVDFLSFLSVHHHVLSWLGIP"
Result: 63500

Request: // same read-out, input: "FANWLGLQKNGMGMRLFPFFIFSLFFLSFFSLFWGFSFFFSFSFFFGFSFFWF"
Result: 23100

----------
Recorded measurements of transcriptional activation domain activity, one per entry
Test system: Saccharomyces cerevisiae
Test: transcriptional activation domain activity (GFP:mCherry ratio, weighted mean of sorted bins, harmonized to initial dataset scale) (arbitrary fluorescence ratio units); higher = stronger transcriptional activation
Conditions: beta-estradiol 1 µM; induction time 4 h
Reply briefly: the number, and no unit.

residue.sequence	experimental.system	reported.result
RRTPFLGVGRSEGKMRLEKFVDEIGQQREDGTDEFLVRGSKEEKTDVVTAVNH	Saccharomyces cerevisiae	9610
VFLGMLFWHCRNYLTSYHYLFSTLAIWVLSYIMRLFYLNWSNPWRMSWLIGDE	Saccharomyces cerevisiae	58300
AAAATGSKRKADDASDEEQEEGDKEGDNNKGEKQGGEPAGKKQKQTAGVKRVV	Saccharomyces cerevisiae	27500

Request: Field request: transcriptional activation domain activity | item: "YKTLDSCCSQLEGYLSRFALKLSHTHLLHLQRLLTLLHAFIAFTKEWQHNARK"
Result: 59400

Request: // same read-out, input: "EYVSLCRTFATREMLKVAIFANIFSKMTRTLACLFVTRISSHVNRLRALLQPI"
Result: 61700

----------
Tested on: Saccharomyces cerevisiae
Experiment: transcriptional activation domain activity (GFP:mCherry ratio, weighted mean of sorted bins, harmonized to initial dataset scale) (arbitrary fluorescence ratio units); higher = stronger transcriptional activation
Details: beta-estradiol 1 µM; induction time 4 h
endpoint.label: transcriptional activation domain activity

residue.sequence	experimental.system	reported.result
SEEDEIKAGEEVPKKRRRRQALSCTECKRRKIKCDRQHPCGPCVRRTEADKCH	Saccharomyces cerevisiae	52300

Request: Field request: transcriptional activation domain activity | item: "MLLHLLPILCPDCIFSASITFAVLSFLLSPCPLLPFSLLPLLCFFISIILRSV"
Result: 42100

Request: // same read-out, input: "YSRLILSVIIQFYQRCSDRFQDVVSRNSLDLTDTRLLVSARWAQRENLVVCLS"
Result: 49600

Request: // same read-out, input: "ERVGERRGSGKTERQRAHDAPEREGARGEKGRRARGTNGEGRGGEEREVRQEG"
Result: 25600

Request: // same read-out, input: "CKRCSTLTCVGCGSRPLEKKLATEINVQGTKLTWCCSRGRLFVIWAILCGFDQ"
Result: 43900
